Where do these numbers come from? They come from patent US20260374794A1.

Record form. Attribute: pEC50. Fill in for each entry.
- Tested target: p53(Y220C) (Homo sapiens, UniProt P04637, Y220C)
- Construct: His-p53 Y220C (94-294) protein
- Assay overview: In vitro DNA binding assay (HTRF), His-p53 Y220C (94-294) with biotinylated p53 consensus DNA
- Assay type: biochemical
- Measurement parameters: HTRF; 27 °C; His-p53 Y220C (94-294) 2.5 nM; biotinylated DNA 10 nM; normalized to 2 μM Ref-1a; EC50 = concentration at 50% Activation; read-out: p53(Y220C) EC50
- Protocol: After His-p53 Y220C (94-294) protein was placed with a compound in the present of MAb Anti His-Tb cryptate (Cisbio, Cat. NO. 61HI2TLA) in a 384 well microplate (Greiner) for 15 min at 25 °C, the assay plate was transferred into 27 °C incubator and incubated for 60 min. […] Homogeneous time-resolved fluorescence (HTRF) signals were read on Tecan Spark multimode microplate reader. HTRF ratios for each individual well were calculated by equation: HTRF ratio=(Signal F665/Signal F620)*1000. […]
Give bare numbers, as −log10 of the molar value.

Field: example entries. Status: answers known.
Query pEC50 on p53(Y220C) (Homo sapiens, UniProt P04637, Y220C) for COc1cc(P(C)(C)=O)ccc1NCC#Cc1sc2c(NC3CCN(C)CC3)nccc2c1CC(F)(F)F [Example 4]
6.45

Query pEC50 on p53(Y220C) (Homo sapiens, UniProt P04637, Y220C) for CCOc1c(P(C)(C)=O)ccc(NCC#Cc2sc3c(N[C@@H]4CCN(C)C[C@@H]4F)cccc3c2CC(F)(F)F)c1OC [Example 43]
7.25

Query pEC50 on p53(Y220C) (Homo sapiens, UniProt P04637, Y220C) for COc1cc(P(C)(C)=O)ccc1NCC#Cc1sc2c(NCC3(F)CCN(C)CC3)cccc2c1CC(F)(F)F [Example 16]
6.60

Query pEC50 on p53(Y220C) (Homo sapiens, UniProt P04637, Y220C) for COc1cc([S@@](=N)(=O)C(C)C)ccc1NCC#Cc1sc2c(N[C@@H]3CCN(C)C[C@@H]3F)cccc2c1CC(F)(F)F [Example 27]
7.13

Query pEC50 on p53(Y220C) (Homo sapiens, UniProt P04637, Y220C) for COc1cc(S(=N)(=O)C2CCOCC2)ccc1NCC#Cc1sc2c(NC3CCN(C)CC3F)cccc2c1CC(F)(F)F (stereo not drawn) [Example 24]
7.17

Give pEC50 for all molecules that follow.
1. COc1cc(P(C)(C)=O)ccc1NCC#Cc1sc2c(N[C@@H]3CC[N@+](C)([O-])C[C@@H]3F)cccc2c1CC(F)(F)F (single isomer, unassigned) [Example 10]
2. COc1cc(P(C)(C)=O)ccc1NCC#Cc1sc2c(N[C@H]3CCN(C)C[C@@H]3F)cccc2c1CC(F)(F)F [Example 38]
3. CN1CC[C@@H](Nc2cccc3c(CC(F)(F)F)c(C#CCNc4ccc(P(C)(C)=O)cc4-c4nc(=O)o[nH]4)sc23)[C@@H](F)C1 [Example 39]
4. COc1cc([S@](=N)(=O)C(F)F)ccc1NCC#Cc1sc2c(N[C@@H]3CCN(C)C[C@@H]3F)cccc2c1CC(F)(F)F [Example 51]
5. COc1cc([S@](C)(=N)=O)ccc1NCC#Cc1sc2c(N[C@@H]3CC[N@@+](C)([O-])C[C@@H]3F)cccc2c1CC(F)(F)F (single isomer, unassigned) [Example 9]

1. 7.28
2. 6.43
3. 6.53
4. 6.73
5. 7.21

Give pEC50 for all molecules that follow.
1. COc1cc(P(C)(C)=O)ccc1NCC#Cc1sc2c(NC3CN(C)CC3F)cccc2c1CC(F)(F)F (stereo not drawn) [Example 13]
2. COc1cc(-c2nc(=O)o[nH]2)ccc1NCC#Cc1sc2c(N[C@@H]3CCN(C)C[C@@H]3F)cccc2c1CC(F)(F)F [Example 40]
3. COc1cc(P(C)(C)=O)ccc1NCC#Cc1sc2c(N[C@@H]3CC[N@@+](C)([O-])C[C@@H]3F)cccc2c1CC(F)(F)F (single isomer, unassigned) [Example 7]

6.98
6.33
7.09

Give pEC50 for all molecules that follow.
1. COc1cc([S@](C)(=N)=O)ccc1NCC#Cc1sc2c(N[C@@H]3CC[N@+](C)([O-])C[C@@H]3F)cccc2c1CC(F)(F)F (single isomer, unassigned) [Example 8]
2. COc1cc(N2CC(=O)NS2(=O)=O)ccc1NCC#Cc1sc2c(N[C@@H]3CCN(C)C[C@@H]3F)cccc2c1CC(F)(F)F [Example 5]
3. COc1nc([S@@](C)(=N)=O)ccc1NCC#Cc1sc2c(N[C@@H]3CCN(C)C[C@@H]3F)cccc2c1CC(F)(F)F [Example 45]
4. COc1cc([S@](=N)(=O)C2CCOCC2)ccc1NCC#Cc1sc2c(N[C@@H]3CCN(C)C[C@@H]3F)cccc2c1CC(F)(F)F [Example 25]
5. COc1cc([S@](=N)(=O)C2CC2)ccc1NCC#Cc1sc2c(N[C@@H]3CCN(C)C[C@@H]3F)cccc2c1CC(F)(F)F [Example 53]
6. COc1cc([S@@](=N)(=O)C(F)F)ccc1NCC#Cc1sc2c(N[C@@H]3CCN(C)C[C@@H]3F)cccc2c1CC(F)(F)F [Example 52]
7. COc1cc(P(C)(C)=O)ccc1NCC#Cc1sc2c(N[C@@H]3CCN(C)C[C@@H]3F)cccc2c1[C@@H](O)C(F)(F)F [Example 33]

7.42
6.49
7.19
7.21
7.41
6.87
7.26

Query pEC50 on p53(Y220C) (Homo sapiens, UniProt P04637, Y220C) for COc1cc(P(C)(C)=O)ccc1NCC#Cc1sc2c(N[C@H]3CCCN(C)C3)cccc2c1CC(F)(F)F [Example 29]
6.81

---

Record form. Attribute: pEC50. Fill in for each entry.
- Tested target: p53(Y220C) (Homo sapiens, UniProt P04637, Y220C)
- Construct: His-p53 Y220C (94-294) protein
- Assay overview: In vitro DNA binding assay (HTRF), His-p53 Y220C (94-294) with biotinylated p53 consensus DNA
- Format: biochemical
- Procedure: After His-p53 Y220C (94-294) protein was placed with a compound in the present of MAb Anti His-Tb cryptate (Cisbio, Cat. NO. 61HI2TLA) in a 384 well microplate (Greiner) for 15 min at 25 °C, the assay plate was transferred into 27 °C incubator and incubated for 60 min. […] Homogeneous time-resolved fluorescence (HTRF) signals were read on Tecan Spark multimode microplate reader. HTRF ratios for each individual well were calculated by equation: HTRF ratio=(Signal F665/Signal F620)*1000. […]
One number for each entry, as −log10 of the molar value.

Field request: pEC50 | item: COc1cc(P(C)(C)=O)ccc1NCC#Cc1sc2c(N[C@@H]3CN4CCC3CC4)cccc2c1CC(F)(F)F
7.19

Below: the item to evaluate.
Field request: pEC50 | item: COc1cc(P(C)(C)=O)ccc1NCC#Cc1sc2c(N[C@H]3CN4CCC3CC4)cccc2c1CC(F)(F)F
6.91

---

- Test system: NUGC-3 (P53 Y220C)
- Assay overview: Cell viability assay (CellTiter-Glo)
- Assay type: cell-based
- Measurement parameters: Homo sapiens, 144 h, NUGC-3 cells, 6 days, 37 °C
Record form. Attribute: IC50. Fill in for each entry.
# output: numeric value plus its unit

Field: example entries. Status: answers known.
Query IC50 on NUGC-3 (P53 Y220C) for COc1c(NCC#Cc2sc3c(N[C@@H]4CCN(C)C[C@@H]4F)cccc3c2CC(F)(F)F)ccc(P(C)(C)=O)c1C
1230 nM

Query IC50 on NUGC-3 (P53 Y220C) for COc1cc([S@@](C)(=N)=O)ccc1NCC#Cc1sc2c(N[C@H]3CCN(C)C[C@H]3F)cccc2c1[C@@H](O)C(F)(F)F
380 nM

Query IC50 on NUGC-3 (P53 Y220C) for COc1cc(P(C)(C)=O)ccc1NCC#Cc1sc2c(N[C@@H]3CCCN(C)C3)cccc2c1CC(F)(F)F
1550 nM

Below: the item to evaluate.
Query IC50 on NUGC-3 (P53 Y220C) for COc1cc([S@@](=N)(=O)C2COC2)ccc1NCC#Cc1sc2c(N[C@@H]3CCN(C)C[C@@H]3F)cccc2c1CC(F)(F)F
1080 nM

---

- Tested target: p53(Y220C)_NUGC-3 (Homo sapiens, UniProt P04637, Y220C)
- Assay overview: Reporter gene assay (NUGC-3_P53_Luc cells)
- Format: cell-based
- Measurement parameters: 6 hours, 37 °C, luciferase, normalized to Ref-1a 10 μM, EC50 = concentration at 50% Activity, read-out: p53(Y220C)_NUGC-3 EC50
Record form. Attribute: log10 EC50. Fill in for each entry.
Plainly stated, the numbers are log10 of EC50 given in nM.

Field: example entries. Status: answers known.
Query log10 EC50 on p53(Y220C)_NUGC-3 (Homo sapiens, UniProt P04637, Y220C) for CN1CC[C@@H](Nc2cccc3c(CC(F)(F)F)c(C#CCNc4ccc(P(C)(C)=O)c5ccoc45)sc23)[C@@H](F)C1 [Example 2]
2.29

Query log10 EC50 on p53(Y220C)_NUGC-3 (Homo sapiens, UniProt P04637, Y220C) for COc1cc(S(=N)(=O)C2CCOCC2)ccc1NCC#Cc1sc2c(NC3CCN(C)CC3F)cccc2c1CC(F)(F)F (stereo not shown) [Example 24]
2.08

Query log10 EC50 on p53(Y220C)_NUGC-3 (Homo sapiens, UniProt P04637, Y220C) for COc1cc([S@](=N)(=O)C(C)C)ccc1NCC#Cc1sc2c(N[C@@H]3CCN(C)C[C@@H]3F)cccc2c1CC(F)(F)F [Example 26]
2.32

Query log10 EC50 on p53(Y220C)_NUGC-3 (Homo sapiens, UniProt P04637, Y220C) for COc1cc([S@](=N)(=O)C2CC2)ccc1NCC#Cc1sc2c(N[C@@H]3CCN(C)C[C@@H]3F)cccc2c1CC(F)(F)F [Example 53]
2.11

Give log10 EC50 for all compounds that follow.
1. COc1nc([S@@](C)(=N)=O)ccc1NCC#Cc1sc2c(N[C@@H]3CCN(C)C[C@@H]3F)cccc2c1CC(F)(F)F [Example 45]
2. COc1cc(S(C)(=O)=O)ccc1NCC#Cc1cc2c(N[C@@H]3CCN(C)C[C@@H]3F)cccc2n1CC(F)(F)F [Ref-1a, reference compound]
3. COc1c(NCC#Cc2sc3c(N[C@@H]4CCN(C)C[C@@H]4F)cccc3c2CC(F)(F)F)ccc(P(C)(C)=O)c1C [Example 41]
4. COc1cc([S@](C)(=N)=O)ccc1NCC#Cc1sc2c(N[C@@H]3CC[N@+](C)([O-])C[C@@H]3F)cccc2c1CC(F)(F)F (single isomer, unassigned) [Example 8]
5. [2H]C([2H])([2H])Oc1nc(P(C)(C)=O)ccc1NCC#Cc1sc2c(N[C@@H]3CCN(C)C[C@@H]3F)cccc2c1CC(F)(F)F [Example 56]

1. 1.98
2. 1.70
3. 2.14
4. 3.86
5. 1.79

Give log10 EC50 for all compounds that follow.
1. COc1cc(S(C)(=O)=O)ccc1NCC#Cc1sc2c(N[C@@H]3CCN(C)C[C@@H]3F)cccc2c1CC(F)(F)F [Example 36]
2. COc1cc(P(C)(C)=O)ccc1NCC#Cc1sc2c(N[C@@H]3CCN(C)C[C@@H]3F)cccc2c1[C@H](O)C(F)(F)F [Example 31]

1: 2.07; 2: 2.10

Give log10 EC50 for all compounds that follow.
1. COc1cc([S@](=N)(=O)C2COC2)ccc1NCC#Cc1sc2c(N[C@@H]3CCN(C)C[C@@H]3F)cccc2c1CC(F)(F)F [Example 49]
2. COc1cc(P(C)(C)=O)ccc1NCC#Cc1sc2c(N[C@@H]3CC[N@+](C)([O-])C[C@@H]3F)cccc2c1CC(F)(F)F (single isomer, unassigned) [Example 10]

1: 1.81; 2: 4.05
